Test: Phase 1 open-label one-sequence crossover drug-interaction study: plasma pharmacokinetics of NBI-98854 and metabolites with and without rifampin
Format: in vivo, human
Conditions: both sexes, human, oral; plasma NBI-98854; NBI-98854 80 mg alone; N = 11; Median (mm, max); read-out: tmax
readout-name: Tmax (min)

COc1cc2c(cc1OC)[C@H]1C[C@@H](OC(=O)[C@@H](N)C(C)C)[C@H](CC(C)C)CN1CC2 | 45

---

Assay: Phase 1 open-label one-sequence crossover drug-interaction study: plasma pharmacokinetics of NBI-98854 and metabolites with and without rifampin
Assay type: in vivo, human
Conditions: both sexes, human, oral; plasma metabolite NBI-136110; NBI-98854 80 mg + rifampin 600 mg; N = 11; Mean (SD)
readout-name: Cmax (ng/mL)

COc1cc2c(cc1OC)[C@H]1C[C@@H](OC(=O)[C@@H](N)C(C)(C)O)[C@H](CC(C)C)CN1CC2 [NBI-136110] | 81.5

---

Test: Phase 1 open-label one-sequence crossover drug-interaction study: plasma pharmacokinetics of NBI-98854 and metabolites with and without rifampin
Type: in vivo, human
Conditions: both sexes, human, oral; plasma NBI-98854; NBI-98854 80 mg + rifampin 600 mg; N = 11; Mean (SD)
readout-name: MRT (h)

COc1cc2c(cc1OC)[C@H]1C[C@@H](OC(=O)[C@@H](N)C(C)C)[C@H](CC(C)C)CN1CC2 | 8.7

---

Assay: Phase 1 open-label one-sequence crossover drug-interaction study: plasma pharmacokinetics of NBI-98854 and metabolites with and without rifampin
Type: in vivo, human
Conditions: both sexes, human, oral; plasma NBI-98854; NBI-98854 80 mg alone; N = 11; Mean (SD)
readout-name: Cmax (ng/mL)

COc1cc2c(cc1OC)[C@H]1C[C@@H](OC(=O)[C@@H](N)C(C)C)[C@H](CC(C)C)CN1CC2 [NBI-98854] | 795

---

Test: Phase 1 open-label one-sequence crossover drug-interaction study: plasma pharmacokinetics of NBI-98854 and metabolites with and without rifampin
Assay type: in vivo, human
Conditions: both sexes, human, oral; plasma analyte; NBI-98854 in combination with rifampin vs NBI-98854 alone; read-out: Median tmax shorter
readout-name: Tmax (h)

COc1cc2c(cc1OC)[C@H]1C[C@@H](OC(=O)[C@@H](N)C(C)(C)O)[C@H](CC(C)C)CN1CC2 | 1.5

---

Assay: Phase 1 open-label one-sequence crossover drug-interaction study: plasma pharmacokinetics of NBI-98854 and metabolites with and without rifampin
Type: in vivo, human
Conditions: both sexes, human, oral, 80 mg; plasma analyte; NBI-98854 alone; read-out: Median tmax
// reported Tmax per item
readout-name: Tmax (h)

COc1cc2c(cc1OC)[C@H]1C[C@@H](OC(=O)[C@@H](N)C(C)(C)O)[C@H](CC(C)C)CN1CC2 | 3
COc1cc2c(cc1OC)[C@H]1C[C@@H](O)[C@H](CC(C)C)CN1CC2 | 4

---

Test: Phase 1 open-label one-sequence crossover drug-interaction study: plasma pharmacokinetics of NBI-98854 and metabolites with and without rifampin
Assay type: in vivo, human
Conditions: both sexes, human, oral; plasma metabolite NBI-136110; NBI-98854 80 mg alone; N = 11; Mean (SD)
readout-name: MRT (h)

COc1cc2c(cc1OC)[C@H]1C[C@@H](OC(=O)[C@@H](N)C(C)(C)O)[C@H](CC(C)C)CN1CC2 | 39

---

Assay: Phase 1 open-label one-sequence crossover drug-interaction study: plasma pharmacokinetics of NBI-98854 and metabolites with and without rifampin
Assay type: in vivo, human
Conditions: both sexes, human, plasma, oral, 80 mg
readout-name: AUC(0-inf) (ng·h/mL)

COc1cc2c(cc1OC)[C@H]1C[C@@H](O)[C@H](CC(C)C)CN1CC2 | 689

---

Experiment: Phase 1 open-label one-sequence crossover drug-interaction study: plasma pharmacokinetics of NBI-98854 and metabolites with and without rifampin
Type: in vivo, human
Conditions: both sexes, human, plasma, oral, 80 mg, plasma metabolite NBI-136110; NBI-98854 80 mg alone; N = 11; Mean (SD); read-out: AUC0-tlast
readout-name: AUC(0-t) (ng·h/mL)

COc1cc2c(cc1OC)[C@H]1C[C@@H](OC(=O)[C@@H](N)C(C)(C)O)[C@H](CC(C)C)CN1CC2 | 1890

---

Experiment: Phase 1 open-label one-sequence crossover drug-interaction study: plasma pharmacokinetics of NBI-98854 and metabolites with and without rifampin
Assay type: in vivo, human
Conditions: both sexes, human, oral; plasma analyte; NBI-98854 plus rifampin; read-out: Median tmax
readout-name: Tmax (h)

COc1cc2c(cc1OC)[C@H]1C[C@@H](O)[C@H](CC(C)C)CN1CC2 [NBI-98782] | 3

---

Assay: Phase 1 open-label one-sequence crossover drug-interaction study: plasma pharmacokinetics of NBI-98854 and metabolites with and without rifampin
Format: in vivo, human
Conditions: both sexes, human, oral; plasma NBI-98854; NBI-98854 80 mg + rifampin 600 mg; N = 11; Mean (SD)
readout-name: AUC(0-inf) (ng·h/mL)

COc1cc2c(cc1OC)[C@H]1C[C@@H](OC(=O)[C@@H](N)C(C)C)[C@H](CC(C)C)CN1CC2 | 1700

---

Test: Phase 1 open-label one-sequence crossover drug-interaction study: plasma pharmacokinetics of NBI-98854 and metabolites with and without rifampin
Format: in vivo, human
Conditions: both sexes, human, plasma, oral, 80 mg
readout-name: MRT (h)

COc1cc2c(cc1OC)[C@H]1C[C@@H](O)[C@H](CC(C)C)CN1CC2 [NBI-98782] | 28

---

Experiment: Phase 1 open-label one-sequence crossover drug-interaction study: plasma pharmacokinetics of NBI-98854 and metabolites with and without rifampin
Assay type: in vivo, human
Details: both sexes, human, oral; plasma metabolite NBI-136110; NBI-98854 80 mg + rifampin 600 mg; N = 11; Mean (SD)
Experimental: Subjects received a single dose of 80 mg valbenazine tosylate on Days 1 and 11 between 0800 and 1000 hours. In addition, subjects received 600 mg rifampin (300 mg×2 capsules) once daily on Days 5 (after collection of the 96-hour PK sample) through 14 between 0830 and 1030 hours. […] Safety was assessed throughout the study. NBI-98854 40 mg capsules were administered orally. The dose of NBI-98854 was based on ditosylate salt (dose expressed as free base). […]
readout-name: AUC(0-inf) (ng·h/mL)

COc1cc2c(cc1OC)[C@H]1C[C@@H](OC(=O)[C@@H](N)C(C)(C)O)[C@H](CC(C)C)CN1CC2 | 663

---

Experiment: Phase 1 open-label one-sequence crossover drug-interaction study: plasma pharmacokinetics of NBI-98854 and metabolites with and without rifampin
Format: in vivo, human
Settings: both sexes, human, plasma, oral, 80 mg, plasma NBI-98854; NBI-98854 80 mg alone; N = 11; Mean (SD); read-out: AUC0-tlast
readout-name: AUC(0-t) (ng·h/mL)

COc1cc2c(cc1OC)[C@H]1C[C@@H](OC(=O)[C@@H](N)C(C)C)[C@H](CC(C)C)CN1CC2 | 5930

---

Experiment: Phase 1 open-label one-sequence crossover drug-interaction study: plasma pharmacokinetics of NBI-98854 and metabolites with and without rifampin
Assay type: in vivo, human
Conditions: both sexes, human, plasma, oral, 80 mg, plasma NBI-98854; NBI-98854 80 mg alone; N = 11; Mean (SD); read-out: AUC0-24
readout-name: AUC(0-t) (ng·h/mL)

COc1cc2c(cc1OC)[C@H]1C[C@@H](OC(=O)[C@@H](N)C(C)C)[C@H](CC(C)C)CN1CC2 | 4480

---

Assay: Phase 1 open-label one-sequence crossover drug-interaction study: plasma pharmacokinetics of NBI-98854 and metabolites with and without rifampin
Format: in vivo, human
Conditions: both sexes, human, plasma, oral, plasma NBI-98854; NBI-98854 80 mg + rifampin 600 mg; N = 11; Mean (SD); read-out: AUC0-tlast
readout-name: AUC(0-t) (ng·h/mL)

COc1cc2c(cc1OC)[C@H]1C[C@@H](OC(=O)[C@@H](N)C(C)C)[C@H](CC(C)C)CN1CC2 | 1670

---

Experiment: Phase 1 open-label one-sequence crossover drug-interaction study: plasma pharmacokinetics of NBI-98854 and metabolites with and without rifampin
Format: in vivo, human
Conditions: both sexes, human, oral; plasma metabolite NBI-136110; NBI-98854 80 mg + rifampin 600 mg; N = 11; Mean (SD)
readout-name: MRT (h)

COc1cc2c(cc1OC)[C@H]1C[C@@H](OC(=O)[C@@H](N)C(C)(C)O)[C@H](CC(C)C)CN1CC2 | 12

---

Experiment: Phase 1 open-label one-sequence crossover drug-interaction study: plasma pharmacokinetics of NBI-98854 and metabolites with and without rifampin
Type: in vivo, human
Details: both sexes, human, oral; plasma metabolite NBI-136110; NBI-98854 80 mg alone; N = 11; Mean (SD)
readout-name: AUC(0-inf) (ng·h/mL)

COc1cc2c(cc1OC)[C@H]1C[C@@H](OC(=O)[C@@H](N)C(C)(C)O)[C@H](CC(C)C)CN1CC2 | 2080
